Listing of entries alongside the reported IC50.
target: CBP (Homo sapiens (Human)); assay: HTRF biochemical assay for CBP activity (TR-FRET, bromodomain); type: binding; details: geometric mean, 10-point 3-fold dilution 33 μM to 1.7 nM, read-out: BROMO IC50 TRF TB CBP (μM gmean)
Sequence (Q92793 1085-1192): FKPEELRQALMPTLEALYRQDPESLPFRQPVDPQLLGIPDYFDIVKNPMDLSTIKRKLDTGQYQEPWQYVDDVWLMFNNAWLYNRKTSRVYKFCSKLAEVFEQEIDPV

A selection of reference data follows.
COC(=O)N1CCc2ccc3c(nc([C@H]4CC[C@@](C)(C(=O)O)CC4)n3[C@@H](C)Cc3ccccc3)c2C1 [Compound 49]: 0.001 to 0.01 µM
COC(=O)N1CCc2ccc3c(nc([C@H]4CC[C@H](C(=O)O)CC4)n3[C@H](C)C[C@@H]3CCCOC3)c2C1 [Compound 212]: 0.01 to 0.1 µM
COC(=O)N1CCc2ccc3c(nc([C@@H]4CCC[C@@H](C(=O)O)C4)n3[C@H](C)Cc3ccccc3C)c2C1 (single isomer, unassigned) [Compound 284]: 0.01 to 0.1 µM
COC(=O)N1CCc2ccc3c(nc([C@H]4CC[C@H](C(=O)O)CC4)n3[C@@H](C)Cc3ccccc3)c2C1 [Compound 192]: 0.01 to 0.1 µM
COC(=O)N1CCc2ccc3c(nc(C4CCCCC4)n3C[C@@H](CC(=O)O)c3ccc(F)c(F)c3)c2C1 [Compound 4]: 0.001 to 0.01 µM
COC(=O)N1Cc2c(ccc3c2nc(C2CCCCC2)n3CCc2ccccc2)C[C@H]1C [Compound 232]: 0.01 to 0.1 µM
COC(=O)N1CCc2ccc3c(nc(-c4ccc(CC(=O)O)cc4)n3[C@@H](C)Cn3cc(Cl)cn3)c2C1 [Compound 122]: 0.001 to 0.01 µM
COC(=O)N1CCc2ccc3c(nc([C@H]4CC[C@H](C(=O)O)CC4)n3[C@H](CO)Cc3ccc(F)c(F)c3)c2C1 [Compound 288]: 0.01 to 0.1 µM
COC(=O)N1CCc2ccc3c(nc(C45CC(C4)C5)n3C[C@@H](C(=O)O)c3ccccc3)c2C1 [Compound 246]: 0.01 to 0.1 µM
COC(=O)N1CCc2c(C(=O)O)cc3c(nc(C4CCCCC4)n3[C@@H](C)Cc3ccccc3)c2C1 [Compound 67]: 0.001 to 0.01 µM

I would be grateful if you could share the reported IC50 for COC(=O)N1CCc2ccc3c(nc(N4CC[C@H](C(=O)O)C4)n3[C@@H](C)Cc3ccccc3)c2C1 [Compound 222] . 0.01 to 0.1 µM

What do you have for COC(=O)N1CCc2ccc3c(nc(C4CCN(C(=O)O)CC4)n3[C@H](C)Cc3ccccc3)c2C1 [Compound 134] ? 0.001 to 0.01 µM

// repeat for COC(=O)N1CCc2ccc3c(nc(N4CCC(C(=O)O)CC4)n3[C@H](C)Cc3ccccc3)c2C1 (single isomer, unassigned) [Compound 325] and report 0.1 to 1 µM

What do we get for COC(=O)N1CCc2ccc3c(nc(N4CCC(C(=O)O)CC4)n3[C@@H](C)Cn3cc(C(F)(F)F)cn3)c2C1 [Compound 46] ? 0.001 to 0.01 µM

What do you get for COC(=O)N1CCc2ccc3c(nc([C@H]4CC[C@H](C(=O)O)CC4)n3[C@@H](C)Cc3c(F)cccc3F)c2C1 [Compound 289] ? 0.01 to 0.1 µM

Follow-up entry: COC(=O)N1CCc2ccc3c(nc([C@H]4CC[C@H](C(=O)O)CC4)n3[C@@H](C)Cc3ccccn3)c2C1 [Compound 141] 0.001 to 0.01 µM

COC(=O)N1CCc2c([C@H]3CCOC3)cc3c(nc([C@H]4CC[C@H](C(=O)O)CC4)n3CCc3ccccc3)c2C1 [Compound 136] ? 0.001 to 0.01 µM

Same read-out for COC(=O)N1CCc2ccc3c(nc(C4CCCCC4)n3C[C@@H](CC(=O)O)c3ccccc3)c2C1 [Compound 8] ? 0.001 to 0.01 µM

What about COC(=O)N1CCc2c([C@@H]3CCOC3)cc3c(nc([C@H]4CC[C@H](C(=O)O)CC4)n3[C@H](C)Cc3ccccc3)c2C1 [Compound 44] ? 0.001 to 0.01 µM

And then COC(=O)N1CCc2ccc3c(nc(N4CCN(S(C)(=O)=O)CC4)n3[C@@H](C)Cn3cc(Cl)cn3)c2C1 [Compound 66] , what is it? 0.001 to 0.01 µM

Here is the next compound: COC(=O)N1CCc2ccc3c(nc([C@H]4CCC[C@H](C(=O)O)C4)n3C[C@H]3CC[C@H](OC)CC3)c2C1 [Compound 255] 0.01 to 0.1 µM

# repeat for COC(=O)N1CCc2ccc3c(nc(N4CCN(C(=O)C5COC5)CC4)n3[C@H](C)Cc3ccccc3)c2C1 [Compound 79] 0.001 to 0.01 µM

Please do the same for COC(=O)N1CCc2ccc3c(nc(C4CCC4)n3C[C@@H](C(=O)O)c3ccccc3)c2C1 [Compound 157] as well. 0.001 to 0.01 µM

Would you mind doing COC(=O)N1CCc2ccc3c(nc(C4CCCCC4)n3CC[C@H]3CCC[C@H](C(=O)O)C3)c2C1 [Compound 172] as well? 0.001 to 0.01 µM

For COC(=O)N1CCc2ccc3c(nc(-c4cccc(CC(=O)O)c4)n3[C@@H](C)Cc3ccccc3)c2C1 [Compound 101] then? 0.001 to 0.01 µM

Same lookup for COC(=O)N1CCc2ccc3c(nc([C@H]4CC[C@](C)(C(=O)O)CC4)n3[C@@H](C)Cn3cc(Cl)cn3)c2C1 [Compound 231] , please. 0.01 to 0.1 µM

COC(=O)N1CCc2ccc3c(nc(C4CCCC4)n3C[C@@H](C(=O)O)c3ccccc3)c2C1 [Compound 205] ? 0.01 to 0.1 µM

Now consider COC(=O)N1CCc2cc(CC(=O)O)c3c(nc(C4CCCCC4)n3CCc3ccccc3)c2C1 [Compound 158] and answer again. 0.001 to 0.01 µM

All figures here come from patent US20250188079A1.
